FYI, the data here is from patent US12617790B2.

- System: CD1 mice
- experimental-details: Radiant heat tail flick analgesia, sc, CD1 mice
- Type: in vivo
- details: Mus musculus, 0.25 h, ED50, cumulative dose-response, tail flick 15 min after sc dose
Reported ED50 values are given for each entry in this list.
State just the number; it will be interpreted in mg/kg.

Take a look at these entries with their results.
- CC[C@@H]1CN2CC[C@@]3(O)C(=Nc4cccc(OC)c43)C2C[C@@H]1/C(=C\OC)C(=O)OC (stereo partly drawn) [VM1501]: 0.46
- CC[C@@H]1CN2CC[C@]3(Nc4ccccc4C3=O)C2C[C@@H]1/C(=C\OC)C(=O)OC (stereo partly drawn) [VM1508]: 0.24

We next turn to a different molecule, shown below.
Sample CC[C@@H]1CN2CC[C@]3(Nc4cccc(O)c4C3=O)C2C[C@@H]1/C(=C\OC)C(=O)OC (stereo partly drawn) [VM1507] ; ED50 observed: 0.18

====

- assayed-target: MOR-1 (Mus musculus, UniProt P42866)
- Construct: expressed in transfected cells; host or cells: CHO
- Sequence (P42866 whole entry): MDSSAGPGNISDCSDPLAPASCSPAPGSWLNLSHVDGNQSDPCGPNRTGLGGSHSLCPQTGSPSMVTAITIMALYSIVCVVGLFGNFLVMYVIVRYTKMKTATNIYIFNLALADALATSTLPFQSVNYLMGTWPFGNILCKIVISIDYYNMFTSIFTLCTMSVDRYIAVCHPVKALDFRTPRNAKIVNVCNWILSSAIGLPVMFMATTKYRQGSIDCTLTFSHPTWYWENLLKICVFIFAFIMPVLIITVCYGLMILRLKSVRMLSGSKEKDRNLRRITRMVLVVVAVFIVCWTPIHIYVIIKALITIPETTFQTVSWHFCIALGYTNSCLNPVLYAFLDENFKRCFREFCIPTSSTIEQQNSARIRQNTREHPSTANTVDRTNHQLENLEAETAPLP
- experimental-details: [35S]GTPγS functional assay, MOR-1 transfected cell membranes
- Assay type: biochemical
# EC50 annotations
Number only, in nM; omit the unit.

- CC[C@@H]1CN2CC[C@@]3(O)C(=Nc4cccc(OC)c43)C2C[C@@H]1/C(=C\OC)C(=O)OC (some centres unmarked): 53

Now examine the next entry.
# CC[C@@H]1CN2CC[C@]3(Nc4cccc(OC)c4C3=O)C2C[C@@H]1/C(=C\OC)C(=O)OC (some centres unmarked) with MOR-1 (Mus musculus, UniProt P42866): EC50 is 1.7

====

- assayed-target: DOR-1 (Mus musculus, UniProt P32300)
- Construct: expressed in transfected cells; host or cells: CHO
- Sequence (P32300 whole entry): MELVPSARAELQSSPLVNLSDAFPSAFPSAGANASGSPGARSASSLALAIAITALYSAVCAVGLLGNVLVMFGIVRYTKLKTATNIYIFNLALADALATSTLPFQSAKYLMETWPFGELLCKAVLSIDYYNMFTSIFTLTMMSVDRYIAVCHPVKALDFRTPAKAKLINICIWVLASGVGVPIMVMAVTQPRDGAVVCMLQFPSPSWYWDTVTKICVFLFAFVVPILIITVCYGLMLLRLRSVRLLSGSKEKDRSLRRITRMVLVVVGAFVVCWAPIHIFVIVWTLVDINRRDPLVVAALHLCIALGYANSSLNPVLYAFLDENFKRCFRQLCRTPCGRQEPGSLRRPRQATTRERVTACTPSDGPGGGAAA
- experimental-details: Competition binding against 125I-IBNtxA in DOR-1/CHO membranes
- details: 125I-IBNtxA (0.1 nM), CHO membranes, cloned mouse receptor; read-out: Affinity (Ki nM) DOR-1
Ki for assorted compounds
Number in nM, nothing else.

- CC[C@@H]1CN2CC[C@]3(Nc4cccc(OC(C)=O)c4C3=O)C2C[C@@H]1/C(=C\OC)C(=O)OC (stereo partly shown): 20

Record summary for CC[C@@H]1CN2CC[C@]3(Nc4cccc(-c5ccoc5)c4C3=O)C2C[C@@H]1/C(=C\OC)C(=O)OC (stereo partly shown) : reported Ki = 1.5

Note to self: Ki recorded for CC[C@@H]1CN2CCc3c([nH]c4ccc(-c5ccoc5)c(OC)c34)C2C[C@@H]1/C(=C\OC)C(=O)OC (stereo partly shown) was 653

====

- assayed-target: MOR-1 (Mus musculus)
- Construct: expressed in transfected cells; host or cells: CHO
- experimental-details: Competition binding against 125I-IBNtxA in MOR-1/CHO membranes
test-readout: pKi
In simple prose, pKi is minus the logarithm base ten of a concentration in moles per litre.

For orientation, consider the following solved cases.
- CC[C@@H]1CN2CC[C@]3(Nc4cccc(OC(C)=O)c4C3=O)C2C[C@@H]1/C(=C\OC)C(=O)OC (stereo partly drawn) [VM1510]: 8.60
- CC[C@@H]1CN2CC[C@@]3(O)C(=Nc4c(-c5ccoc5)ccc(OC)c43)C2C[C@@H]1/C(=C\OC)C(=O)OC (stereo partly drawn) [VM1524]: 6.93

Then this compound:
Entry under test: CC[C@@H]1CN2CCc3c([nH]c4cccc(O)c34)[C@@H]2C[C@@H]1/C(=C\OC)C(=O)OC [VM1532] . Its pKi was 6.68

====

The following compounds are listed with their measured Ki values.
- assayed-target: DOR-1 (Mus musculus, UniProt P32300)
- Construct: expressed in transfected cells; host or cells: CHO
- experimental-details: Competition binding against 125I-IBNtxA in DOR-1/CHO membranes
Quick reminder: number only, in nM, skip the unit.

• CC[C@@H]1CN2CC[C@@]3(O)C(=Nc4cccc(OC)c43)C2C[C@@H]1/C(=C\OC)C(=O)OC (stereo partly drawn) [VM1501] = 91
• CC[C@@H]1CN2CC[C@]3(Nc4cccc(OC)c4C3=O)C2C[C@@H]1/C(=C\OC)C(=O)OC (stereo partly drawn) [VM1502] = 3

Fill in: DOR-1 (Mus musculus, UniProt P32300) Ki for Oc1ccc2c3c1O[C@H]1c4[nH]c5ccccc5c4C[C@@]4(O)[C@@H](C2)N(CC2CC2)CC[C@]314 [NTI, Naltrindole, reference compound] = 0.46

====

- assayed-target: UniProt:P33534
- experimental-details: [35S]GTPγS functional assay, KOR-1 transfected cell membranes
- details: agonist stimulation of [35S]GTPγS binding
test-readout: EC50 (nM)
Write the number in nM without appending the unit.

Entry CC[C@@H]1CN2CCC3(Nc4c(-c5ccoc5)ccc(OC)c4C3=O)C2C[C@@H]1/C(=C\OC)C(=O)OC (stereo partly shown) — recorded EC50 = 40

====

- assayed-target: KOR-1 (Mus musculus)
- Construct: expressed in transfected cells; host or cells: CHO
- Sequence (P33534 whole entry): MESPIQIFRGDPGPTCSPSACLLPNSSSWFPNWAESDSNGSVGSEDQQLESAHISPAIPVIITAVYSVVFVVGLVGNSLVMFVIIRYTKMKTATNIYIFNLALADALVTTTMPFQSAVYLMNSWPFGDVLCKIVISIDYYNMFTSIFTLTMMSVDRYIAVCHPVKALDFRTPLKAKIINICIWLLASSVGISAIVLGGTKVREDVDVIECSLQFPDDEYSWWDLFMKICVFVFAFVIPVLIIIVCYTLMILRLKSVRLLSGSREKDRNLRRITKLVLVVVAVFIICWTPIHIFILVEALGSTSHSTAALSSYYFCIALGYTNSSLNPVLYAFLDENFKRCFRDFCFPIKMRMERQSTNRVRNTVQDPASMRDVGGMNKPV
- experimental-details: [35S]GTPγS functional assay, KOR-1 transfected cell membranes
- Type: biochemical
- details: antagonism of 100 nM U50,488H; read-out: KOR-1 IC50
test-readout: IC50

Examples with answers:
* CC[C@@H]1CN2CC[C@]3(Nc4ccccc4C3=O)C2C[C@@H]1/C(=C\OC)C(=O)OC (some centres unmarked) [VM1508] | 252 nM
* Oc1ccc2c3c1O[C@H]1c4[nH]c5c(c4C[C@@]4(O)[C@@H](C2)N(CC2CC2)CC[C@]314)C[C@@]1(O)[C@H]2Cc3ccc(O)c4c3[C@@]1(CCN2CC1CC1)[C@H]5O4 [norBNI, norbinaltorphimine, reference compound] | 2.9 nM
* CC[C@@H]1CN2CC[C@]3(Nc4cccc(C#N)c4C3=O)C2C[C@@H]1/C(=C\OC)C(=O)OC (some centres unmarked) [VM1509] | 721 nM
* CC[C@@H]1CN2CC[C@]3(Nc4cccc(-c5ccoc5)c4C3=O)C2C[C@@H]1/C(=C\OC)C(=O)OC (some centres unmarked) [VM1512] | 202 nM

Okay, now this compound:
Sure, the documented IC50 for CC[C@@H]1CN2CC[C@]3(Nc4cccc(-c5ccccc5)c4C3=O)C2C[C@@H]1/C(=C\OC)C(=O)OC (some centres unmarked) [VM1511] is 171 nM
